Measured values drawn from paper PMC7497253 for this set.

Target: bD4Pro (unlinked binary dengue-4 virus NS2B-NS3 protease) (Dengue virus type 4, UniProt Q2YHF2)
Construct: The viral protease consists of the N‐terminal third of the nonstructural protein NS3; NS3 has to form a complex with its cofactor NS2B to achieve proteolytic activity; His6 (cleaved yes); made in house
Sequence (Q2YHF2 1475-1652 limits assumed): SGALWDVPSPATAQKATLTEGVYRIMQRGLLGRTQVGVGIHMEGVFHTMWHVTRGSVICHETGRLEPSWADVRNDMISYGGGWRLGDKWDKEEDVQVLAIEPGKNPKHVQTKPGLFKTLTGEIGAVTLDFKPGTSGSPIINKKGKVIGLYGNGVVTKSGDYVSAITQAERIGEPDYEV
Sequence (Q2YHF2 1397-1436 limits assumed): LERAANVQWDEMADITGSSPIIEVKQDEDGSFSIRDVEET
Assay: Enzyme kinetics with bD4Pro, substrate Benzoyl-Nle-Lys-Arg-Arg-AMC
Type: biochemical
pKi: −log10 of the molar value.
readout: pKi

>>> df
                                 smiles_str  observed_result
0  N=C(N)N[C@H]1CCCNC(=O)[C@H](CCCCN)NC(=O)[C@H](CCCCN)NC(=O)Cc2ccc(cc2)CNC(=O)CCCNC1=O             3.93
1  N=C(N)N[C@@H]1CCCCNC(=O)[C@H](CCCCN)NC(=O)[C@H](CCCCN)NC(=O)Cc2cccc(c2)CNC(=O)CCCNC1=O             6.54
2  N=C(N)N[C@@H]1CCCCNC(=O)[C@H](CCCCN)NC(=O)[C@H](CCCCN)NC(=O)Cc2cccc(c2)NC(=O)CCNC1=O             5.10
3  CC(=O)NCc1cccc(CC(=O)N[C@@H](CCCCN)C(=O)N[C@@H](CCCCN)C(=O)NCCCC[C@@H](NC(=N)N)C(N)=O)c1             5.92
